# maps each entry to its Activity
- TEST_TARGET: UniProtKB Q9Y5X5
- Sequence (Q9Y5X5 whole entry): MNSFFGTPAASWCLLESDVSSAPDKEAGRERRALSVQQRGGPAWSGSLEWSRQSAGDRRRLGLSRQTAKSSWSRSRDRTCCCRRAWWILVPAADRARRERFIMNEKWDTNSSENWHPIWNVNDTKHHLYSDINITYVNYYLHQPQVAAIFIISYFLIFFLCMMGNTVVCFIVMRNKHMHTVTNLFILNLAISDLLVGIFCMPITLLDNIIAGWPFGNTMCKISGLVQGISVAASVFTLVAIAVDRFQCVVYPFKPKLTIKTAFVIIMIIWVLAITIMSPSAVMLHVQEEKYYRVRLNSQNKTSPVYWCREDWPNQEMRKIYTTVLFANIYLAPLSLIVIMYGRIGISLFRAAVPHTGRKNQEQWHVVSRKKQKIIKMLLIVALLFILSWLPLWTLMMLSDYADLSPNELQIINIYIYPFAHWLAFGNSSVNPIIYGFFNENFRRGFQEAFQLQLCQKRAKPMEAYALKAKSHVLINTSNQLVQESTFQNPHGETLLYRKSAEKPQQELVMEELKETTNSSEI
- METHOD_SUMMARY: Displacement of [125I]-1DMeNPFF from human NPFFR2 expressed in CHO cell membrane at 0.05 uM incubated for 1 hr by Topcount counting method relative to control
- Type: cell membranes
- DETAILS: filed as antagonist
Numbered stars: 1 amine (or outer) side, 2 acyl side, 3 side chain; on linkers, the order of the positions; unused ones are H or OH. Square brackets hold non-standard residues; d marks the D form. Peptide text beside a SMILES is read from it. * marks the point of attachment. Nva(5-(4-Bn-piperidin-1-yl)) = N[C@@H](CCCN1CCC(Cc2ccccc2)CC1)C(=O)O; X2 = O=C1[C@@H](N[*:1])Cc2ccccc2CN1CCCC(=O)[*:2]; X1 = O=C1[C@@H](N[*:1])Cc2ccccc2CN1CCC(=O)[*:2]; Dmt = Cc1cc(O)cc(C)c1C[C@H](N)C(=O)O; Nicotinoyl = O=C(c1cccnc1)*; dNMeA = CN[C@H](C)C(=O)O
State just the number; it will be interpreted in %.

COMPOUND	Activity [%]
Cc1cc(O)cc(C)c1C[C@H](N)C(=O)N1CCC[C@@H]1C(=O)N[C@H]1Cc2ccccc2CN(CCC(=O)N[C@@H](CCCN2CCC(Cc3ccccc3)CC2)C(=O)N[C@@H](Cc2ccccc2)C(N)=O)C1=O (H-[Dmt][dP][X1][Nva(5-(4-Bn-piperidin-1-yl))]F-NH2)	72

The reported Activity of the compound `Cc1cc(O)cc(C)c1C[C@H](NC(=N)N)C(=O)N[C@H](CCCNC(=N)N)C(=O)N[C@H]1Cc2ccccc2CN(CCC(=O)N[C@@H](CCCN2CCC(Cc3ccccc3)CC2)C(=O)N[C@@H](Cc2ccccc2)C(N)=O)C1=O` was 91

The reported Activity of the compound Cc1cc(O)cc(C)c1C[C@H](N)C(=O)N[C@H](CCCCNC(=O)c1cccnc1)C(=O)N[C@H]1Cc2ccccc2CN(CCC(=O)N[C@@H](CCCN2CCC(Cc3ccccc3)CC2)C(=O)N[C@@H](Cc2ccccc2)C(N)=O)C1=O (H-[Dmt][dK](Nicotinoyl)[X1][Nva(5-(4-Bn-piperidin-1-yl))]F-NH2) was 70

The reported Activity of the compound `Cc1cc(O)cc(C)c1C[C@H](N)C(=O)N[C@H](CCCNC(=N)N)C(=O)N[C@H]1Cc2c(ccc3ccccc23)CN(CC(=O)N[C@@H](CCCN2CCC(Cc3ccccc3)CC2)C(=O)N[C@H](C(N)=O)C(C)C)C1=O` was 77

The reported Activity of the compound `Cc1cc(O)cc(C)c1C[C@H](N)C(=O)N[C@H](CCCNC(=N)N)C(=O)N[C@H]1Cc2c(ccc3ccccc23)CN(CC(=O)N[C@@H](CCCN2CCC(Cc3ccccc3)CC2)C(=O)N[C@@H](Cc2ccccc2)C(N)=O)C1=O` was 96

The reported Activity of the compound Cc1cc(O)cc(C)c1C[C@H](N)C(=O)N(C)[C@H](C)C(=O)N[C@H]1Cc2ccccc2CN(CCCC(=O)N[C@@H](CCCN2CCC(Cc3ccccc3)CC2)C(=O)N[C@@H](Cc2ccccc2)C(N)=O)C1=O (H-[Dmt][dNMeA][X2][Nva(5-(4-Bn-piperidin-1-yl))]F-NH2) was 65

The reported Activity of the compound Cc1cc(O)cc(C)c1C[C@H](N)C(=O)N(C)[C@H](C)C(=O)N[C@H]1Cc2ccccc2CN(CCC(=O)N[C@@H](CCCN2CCC(Cc3ccccc3)CC2)C(=O)N[C@@H](Cc2ccccc2)C(N)=O)C1=O (H-[Dmt][dNMeA][X1][Nva(5-(4-Bn-piperidin-1-yl))]F-NH2) was 48

The reported Activity of the compound `Cc1cc(O)cc(C)c1C[C@H](N)C(=O)N[C@H](CCCNC(=N)N)C(=O)N[C@H]1Cc2c(ccc3ccccc23)CN(CC(=O)N[C@@H](CCCN2CCC(Cc3ccccc3)CC2)C(=O)N[C@@H](Cc2c[nH]c3ccccc23)C(N)=O)C1=O` was 84
